# microsomal CLint at 1 μM annotations
Assay explanation: Metabolic stability in human liver microsomes (HLM)
Type: in vitro ADME
Recorded conditions: pH 7.4, 1 μM compound, 0.5 mg/ml microsomal protein, 37° C.
Write the number in µL/min/mg without appending the unit.

Task item: Check the records and state microsomal CLint at 1 μM for CCOc1ccc(-c2nnc([C@H]3C[C@H](NC(=O)c4cccc5nc(O)c(O)nc45)C3)n2-c2ccccc2F)nc1
Reply: 5

Task item: Determine its reported microsomal CLint at 1 μM: CCOc1ccc(-c2nnc([C@H]3C[C@H](NC(=O)c4cccc5c4ncc[n+]5[O-])C3)n2-c2ccccc2F)nc1
Reply: 5

Task item: Report microsomal CLint at 1 μM for CCOc1ccc(-c2nnc([C@H]3C[C@H](NC(=O)c4cccc5nccnc45)C3)n2-c2ccccc2F)nc1 [Example 154 of WO 2019/243822, reference compound]
Reply: 40

Task item: Report microsomal CLint at 1 μM, nothing else, for this compound: CCOc1ccc(-c2nnc([C@H]3C[C@H](NC(=O)c4cccc5ncc(O)nc45)C3)n2-c2ccccc2F)nc1
Reply: 45

====

Assay explanation: Metabolic stability in mouse liver microsomes (MLM)
Assay type: in vitro ADME
Recorded conditions: pH 7.4, 1 μM compound, 0.5 mg/ml microsomal protein, 37° C.
Recorded endpoint: microsomal CLint at 1 μM (µL/min/mg)
Numbers only here, please. The scale is µL/min/mg.

Solved entries:
# Compound, microsomal CLint at 1 μM, µL/min/mg
rows = [
    ("CCOc1ccc(-c2nnc([C@H]3C[C@H](NC(=O)c4cccc5nc(O)c(O)nc45)C3)n2-c2ccccc2F)nc1", 9),
    ("CCOc1ccc(-c2nnc([C@H]3C[C@H](NC(=O)c4cccc5ncc(O)nc45)C3)n2-c2ccccc2F)nc1", 72),
    ("CCOc1ccc(-c2nnc([C@H]3C[C@H](NC(=O)c4cccc5nccnc45)C3)n2-c2ccccc2F)nc1 [Example 154 of WO 2019/243822, reference compound]", 81),
]

Next, consider the following compound.
Task item: Tell me microsomal CLint at 1 μM reported for CCOc1ccc(-c2nnc([C@H]3C[C@H](NC(=O)c4cccc5c4ncc[n+]5[O-])C3)n2-c2ccccc2F)nc1
Reply: 19

====

Listing of entries alongside the reported log10(IC50).
Test system: HEK293
Assay explanation: Cellular IC50 HEK293
Assay type: cell-based
Recorded conditions: Homo sapiens, HEK293; read-out: Cellular IC50 HEK 293
Hello, just confirming the data are log10 of IC50 with units of nM.

# Compound smiles, Subject of test, log10(IC50)
records = [
    ("CCOc1ccc(-c2nnc([C@H]3C[C@H](NC(=O)c4cccc5c(N(C)C)ccnc45)C3)n2-c2ccccc2F)nc1", "HEK293", 1.18),
    ("CCOc1ccc(-c2nnc([C@H]3C[C@H](NC(=O)c4cccc5c(O)ccnc45)C3)n2-c2ccccc2F)nc1", "HEK293", 0.93),
    ("CCOc1ccc(-c2nnc([C@H]3C[C@H](NC(=O)c4cccc(C(=O)N(C)C)n4)C3)n2-c2ccccc2F)nc1", "HEK293", 2.28),
    ("CCOc1ccc(-c2nnc([C@H]3C[C@H](NC(=O)c4cc[n+]([O-])cc4)C3)n2-c2ccccc2F)nc1", "HEK293", 1.53),
]

Okay, now this compound:
Task item: Tell me measured log10(IC50) for CCOc1ccc(-c2nnc([C@H]3C[C@H](NC(=O)c4cccc(N)n4)C3)n2-c2ccccc2F)nc1 please.
Reply: 1.43
